All figures here come from PubChem BioAssay (EPA / NIEHS).

assayed.system: zebrafish Thyroid Hormone Receptor beta (TRb), thrb (gene 30607)
method.description: ATG_zfTRb_XSP2: Attagene TRANS-FACTORIAL Multi-Species (XSP1) HepG2 Assay for zebrafish Thyroid Hormone Receptor beta (TRb) (AID 2283836)
Method: ATG_XSP2_multi-species_TRANS is a cell-based, multiplexed assay created by modifying the existing Attagene TRANS-FACTORIAL system to include a panel of nuclear receptors from some or all the following species: human (Homo sapiens), mouse (Mus musculus), frog (Xenopus laevis), zebrafish (Danio rerio), chicken (Gallus gallus), and turtle (Chrysemys picta). The ECOTOX-FACTORIAL format uses HepG2, a human liver cell line, with measurements taken at 24 hours after chemical dosing in a 24-well plate. […]
Inconclusive results are not listed. Calls of active or inactive are those of the source. The calls were made as follows: active = hit-call score of the fitted dose curve at least 0.9, where 1 is the maximum; inconclusive = response in the unintended direction; inactive = score below 0.9.
readout.type: outcome

O=C(O)/C=C/c1ccccc1 inactive
CC(CCC(=O)O)(c1ccc(O)cc1)c1ccc(O)cc1 inactive
COc1ccc(-c2coc3cc(O)cc(O)c3c2=O)cc1 inactive
Oc1ccc(-c2ccccc2)c(Cl)c1 inactive
